# TESTED SYSTEM: Neurogenic locus notch homolog protein 3 (Homo sapiens)
# TEST DESCRIPTION: NOTCH3 binders on small-molecule microarray, primary screen, biochemical, 635/667 nm fluorescence (AID 1096)
# STUDY CONDITIONS: NOTCH3 binding, 635 nm fluorescence, higher = more signal
QUANTITY KIND: composite z-score
Numbers only.

Example compounds with recorded composite z-score:
COMPOUND: C=CC(CO)NC(=O)OCC1c2ccccc2-c2ccccc21 (stereo not drawn)
TESTED SYSTEM: Neurogenic locus notch homolog protein 3 (Homo sapiens)
composite z-score: 0.493
--
COMPOUND: CCOC(=O)C1=CC[C@@H](c2ccccc2)N(S(=O)(=O)c2ccc(C)cc2)[C@H]1C#N
TESTED SYSTEM: Neurogenic locus notch homolog protein 3 (Homo sapiens)
composite z-score: 0.612
--
COMPOUND: CN(C)CCCCNC(=O)[C@H]1C[C@H]2C(=O)N[C@@H](Cc3ccccc3)C(=O)N2[C@H]1c1cccc(OCCO)c1
TESTED SYSTEM: Neurogenic locus notch homolog protein 3 (Homo sapiens)
composite z-score: 0.307
--
COMPOUND: CCOC(=O)C1=CC[C@@H](c2ccccc2Cl)N(S(=O)(=O)c2ccc(C)cc2)[C@H]1c1cccc(OC)c1
TESTED SYSTEM: Neurogenic locus notch homolog protein 3 (Homo sapiens)
composite z-score: 0.506
--
COMPOUND: O=C1O[C@H](c2ccccc2)[C@H](c2ccccc2)N2[C@H]1[C@@H](C(=O)N1CCN(c3ncccn3)CC1)[C@]1(C(=O)Nc3ccccc31)[C@H]2c1ccc(O)cc1
TESTED SYSTEM: Neurogenic locus notch homolog protein 3 (Homo sapiens)
composite z-score: 0.305

Hi there! I need composite z-score for each item below, if you can.
1. CCC[C@@H]1[C@@H](Sc2ccccc2)[C@@H](C(=O)O)[C@H](c2ccc(C)cc2)N1S(=O)(=O)c1ccc(C)cc1
2. CCCC[C@@H]1C[C@H]1[C@@H](NC(=O)c1ccc(C(F)(F)F)cc1)c1ccc(C(=O)OC)cc1
3. COc1ccc(CCNC(=O)[C@@H]2c3ccccc3C(=O)N(CC34CC5CC(CC(C5)C3)C4)[C@H]2c2ccc(CO)cc2)cc1

Marked response:
[1.04, 0.812, 1.06]

* * *

# TESTED SYSTEM: Follistatin (Homo sapiens)
# TEST DESCRIPTION: follistatin binders on small-molecule microarrays, primary screen, biochemical, small-molecule microarray, 635/667 nm fluorescence (AID 1132)
# STUDY CONDITIONS: FST binding, 635 nm fluorescence, higher = more signal
Returns Met if the recorded composite z-score is greater than or equal to -0.2, and Not met otherwise.

Consider the following illustrative entries.
MOLECULE: CCCCN1CC=CC23O[C@@H]4C=CCOC(=O)[C@@H]4[C@H]2C(=O)N(CCO)[C@@H]3C1=O (stereo partly drawn)
CLASSIFICATION: Not met
--
MOLECULE: C[C@H]1C2[C@H](Cc3ccccc3)NC(=O)[C@]23C(=O)NCC(=O)N2CCC[C@H]2C(=O)NC/C=C\C/C=C/C3[C@@H]2O[C@]12C (stereo partly drawn)
CLASSIFICATION: Met
--
MOLECULE: COC(=O)[C@@]1(Cc2ccc(OC)cc2)[C@H]2c3cc(C(=O)N(C)C)n(Cc4ccsc4Br)c3C[C@H]2CN1C(=O)c1ccccc1
CLASSIFICATION: Not met
--
MOLECULE: Cc1ccc(S(=O)(=O)N2[C@@H](c3ccccc3)C(C(=O)O)=CC[C@H]2c2ccc(C#N)cc2)cc1
CLASSIFICATION: Met
--
MOLECULE: CCOC(=O)C1=CC[C@@H](c2ccc(F)cc2)N(S(=O)(=O)c2ccc(C)cc2)[C@H]1c1ccc([N+](=O)[O-])cc1
CLASSIFICATION: Met
--
MOLECULE: NCCCC[C@@H]1NC(=O)[C@H]2C[C@@H](C(=O)NCc3ccc(F)cc3)[C@@H](c3cccc(OCCO)c3)N2C1=O
CLASSIFICATION: Met
--
MOLECULE: COCC(=C=CC[C@@H](O)c1cccc(OCCO)c1)C[C@@H](O)COCc1ccccc1
CLASSIFICATION: Met

Shift focus to the following entry.
Exam item: Would you say COC(=O)C1(CC(C)C)C=C2C(=C(C(C)C)C(=O)C2C)CN1 (stereo not drawn) shows composite z-score at minimum -0.2?
Marked response: Not met
